Target: NHE-1 (Homo sapiens)
Construct: endogenous in cells
Assay: Evaluation of NHE-1 Inhibition (pHi) in HT-29 cells
Conditions: BCECF dye, 50% inhibition of the intracellular pH recovery, read-out: NHE1 HT29 pHi IC50
pIC50: −log10 of the molar value.
readout-label: pIC50

# annotated cases, reported pIC50 shown
>  <given-smiles>
N=C(N)NC(=O)c1ccc(C2CCN(C(=O)C3(N)CCS(=O)(=O)CC3)CC2)c(C(F)(F)F)c1

>  <test-system>
NHE-1 (Homo sapiens)

>  <measured-number>
7.96

$$$$
>  <given-smiles>
CC(=O)N1CCC(c2cc(C)c(C(=O)NC(=N)N)cc2S(C)(=O)=O)CC1

>  <test-system>
NHE-1 (Homo sapiens)

>  <measured-number>
7.92

$$$$
>  <given-smiles>
CNS(=O)(=O)c1ccc(Oc2ccc(C(=O)N3CCC(c4ccc(C(=O)NC(=N)N)cc4C(F)(F)F)CC3)cn2)cc1

>  <test-system>
NHE-1 (Homo sapiens)

>  <measured-number>
7.04

$$$$

(I) COCCC(=O)N1CCC(c2ccc(C(=O)NC(=N)N)cc2C(F)(F)F)CC1
(II) N=C(N)NC(=O)c1ccc(C2CCN(C(=O)c3ccc4ncsc4c3)CC2)c(C(F)(F)F)c1
Task: Between the entries labeled I and II , whose measured pIC50 is lower? Choose, then provide that item's label.
Result: II
(II: 6.94, I: 7.70)

----------
Target: NHE-1 (Homo sapiens, UniProt P19634)
Construct: endogenous in cells
Sequence (P19634 whole entry): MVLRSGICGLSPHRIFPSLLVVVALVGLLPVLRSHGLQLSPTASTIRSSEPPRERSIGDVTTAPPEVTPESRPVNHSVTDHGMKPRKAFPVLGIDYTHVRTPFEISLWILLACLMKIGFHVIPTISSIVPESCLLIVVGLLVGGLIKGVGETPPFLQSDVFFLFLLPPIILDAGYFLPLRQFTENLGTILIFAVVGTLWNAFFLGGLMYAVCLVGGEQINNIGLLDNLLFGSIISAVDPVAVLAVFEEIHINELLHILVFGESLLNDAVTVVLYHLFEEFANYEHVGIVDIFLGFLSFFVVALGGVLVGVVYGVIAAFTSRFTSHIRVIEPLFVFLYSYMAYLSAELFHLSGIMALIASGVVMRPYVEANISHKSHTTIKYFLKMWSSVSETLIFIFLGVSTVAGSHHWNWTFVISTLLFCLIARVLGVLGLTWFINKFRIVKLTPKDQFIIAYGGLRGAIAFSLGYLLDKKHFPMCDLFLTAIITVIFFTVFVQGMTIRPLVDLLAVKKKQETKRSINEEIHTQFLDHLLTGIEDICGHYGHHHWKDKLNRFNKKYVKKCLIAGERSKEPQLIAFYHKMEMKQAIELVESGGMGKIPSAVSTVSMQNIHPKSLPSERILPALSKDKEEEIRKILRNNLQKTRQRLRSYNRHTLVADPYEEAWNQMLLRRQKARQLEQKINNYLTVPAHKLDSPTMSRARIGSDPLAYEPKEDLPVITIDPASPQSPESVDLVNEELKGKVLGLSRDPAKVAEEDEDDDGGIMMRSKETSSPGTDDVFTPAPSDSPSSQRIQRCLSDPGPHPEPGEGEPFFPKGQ
Experiment: Evaluation of NHE-1 Inhibition (pHi) in HT-29 cells
Details: BCECF dye, 50% inhibition of the intracellular pH recovery, read-out: NHE1 HT29 pHi IC50
pIC50: −log10 of the molar value.
readout-label: pIC50

>  <compound>
N=C(N)NC(=O)c1ccc(C2CCN(C(=O)C3CCNCC3)CC2)c(C(F)(F)F)c1

>  <readout-label>
pIC50

>  <measured-number>
8.22

$$$$
>  <compound>
N#Cc1ccccc1C(=O)N1CCC(c2ccc(C(=O)NC(=N)N)cc2C(F)(F)F)CC1

>  <readout-label>
pIC50

>  <measured-number>
7.21

$$$$
>  <compound>
COc1cc(C2CCN(C(=O)c3ccn[nH]3)CC2)c(C(F)(F)F)cc1C(=O)NC(=N)N

>  <readout-label>
pIC50

>  <measured-number>
8.22

$$$$

(A) N=C(N)NC(=O)c1ccc(C2CCN(C(=O)c3ccc(-n4ccnc4)nc3)CC2)c(C(F)(F)F)c1
(B) N=C(N)NC(=O)c1ccc(C2CCN(C(=O)[C@@H](N)CC(=O)O)CC2)c(C(F)(F)F)c1
Task: Input pair: A , B . Output: entry with lower pIC50. To answer, give the label that identifies your chosen option.
Result: A

(a) N#Cc1cccc(C(=O)N2CCC(c3ccc(C(=O)NC(=N)N)cc3C(F)(F)F)CC2)c1
(b) COc1cc(C2CCN(C(=O)[C@H](OC(C)=O)c3ccccc3)CC2)c(C(F)(F)F)cc1C(=O)NC(=N)N
Task: Endpoint returns the identifier whose pIC50 is numerically larger, either a or b . # answer = label of selected item
Result: a

----------
Target: NHE-1 (Homo sapiens, UniProt P19634)
Construct: endogenous in cells
Assay: Evaluation of NHE-1 Inhibition (pHi) in HT-29 cells
Conditions: BCECF dye, 50% inhibition of the intracellular pH recovery, read-out: NHE1 HT29 pHi IC50
Procedure: Evaluation of NHE-1 Inhibition (pHi) HT-29 cells resuspended in DMEM supplemented with 10% FBS, 1% NEAA, and 1% Penn-Strep are seeded at 10,000 cells/well in collagen coated 384 well plates which are then incubated for 24 hours at 37° C. […]
readout-label: IC50 (nM)

// solved cases for IC50 follow
>  <given-smiles>
N=C(N)NC(=O)c1ccc([C@H]2CCN(C(=O)c3ccc(F)cc3)C2)c(C(F)(F)F)c1

>  <result-unit>
nM

>  <IC50>
24

$$$$
>  <given-smiles>
Cc1cc(C2CCN(C(=O)c3ncc[nH]3)CC2)c(C(F)(F)F)cc1C(=O)NC(=N)N

>  <result-unit>
nM

>  <IC50>
4

$$$$
>  <given-smiles>
CN(C)C(=O)N1CCC(c2ccc(C(=O)NC(=N)N)cc2C(F)(F)F)CC1

>  <result-unit>
nM

>  <IC50>
10

$$$$

(P) N=C(N)NC(=O)c1ccc(C2CCN(C(=O)CN3CCOCC3)CC2)c(C(F)(F)F)c1
(Q) Cc1cc(C2CCN(C(=O)c3ccc(C#N)cc3)CC2)c(C(F)(F)F)cc1C(=O)NC(=N)N
Task: Lab note: record which item had the higher IC50, P or Q . Your answer should be the label attached to the chosen record.
Result: Q
(Q: 36 nM, P: 25 nM)

Attribution: patent US20110118262A1
